Data provenance: patent US20260055066A1

- Test protocol: Comparative pharmacokinetic test of the formulation in beagle dog, Experimental Example 8
- Format: in vivo
- Condition context: beagle, dog, plasma, po, 25 mg, CL(inf)/F, 25 mg solution (po), per head, suspended in 2.5% HP-PCD, single dose, beagle dog plasma
Experimental readout: CL/F (L/h)

INSERT INTO measurements (compound, unit_of_measure, meas_value) VALUES
  ('C[C@@H]1CN(c2ccc(S(C)(=O)=O)cc2F)CCN1c1nccc(C(=O)NC2C3CC4CC2CC(O)(C4)C3)n1 (stereo partly shown)', 'L/h', 6.9);

---

- Test protocol: Comparative pharmacokinetic test of the formulation in beagle dog, Experimental Example 8
- Assay type: in vivo
- Condition context: beagle, dog, plasma, po, 25 mg, 25 mg solution (po), per head, suspended in 2.5% HP-PCD, single dose, beagle dog plasma
Experimental readout: AUC(0-t) (ng·h/mL)

INSERT INTO assay_data (compound, experimental_readout, meas_value) VALUES
  ('C[C@@H]1CN(c2ccc(S(C)(=O)=O)cc2F)CCN1c1nccc(C(=O)NC2C3CC4CC2CC(O)(C4)C3)n1 (stereo partly shown)', 'AUC(0-t)', 3370);

---

- Test protocol: Comparative pharmacokinetic test of the formulation in beagle dog, Experimental Example 8
- Assay type: in vivo
- Condition context: beagle, dog, plasma, po, 25 mg, 25 mg solution (po), per head, suspended in 2.5% HP-PCD, single dose, beagle dog plasma
Experimental readout: Tmax (h)

INSERT INTO assay_data (compound, meas_value) VALUES
  ('C[C@@H]1CN(c2ccc(S(C)(=O)=O)cc2F)CCN1c1nccc(C(=O)NC2C3CC4CC2CC(O)(C4)C3)n1 (stereo partly shown) [chemical formula 1]', 1.5);

---

- Test protocol: Comparative pharmacokinetic test of the formulation in beagle dog, Experimental Example 8
- Type: in vivo
- Condition context: beagle, dog, plasma, po, 50 mg, 50 mg tablet (po), per head, single dose, beagle dog plasma
Experimental readout: Tmax (h)

INSERT INTO measurements (compound, meas_value) VALUES
  ('C[C@@H]1CN(c2ccc(S(C)(=O)=O)cc2F)CCN1c1nccc(C(=O)NC2C3CC4CC2CC(O)(C4)C3)n1 (stereo partly shown)', 2);

---

- Test protocol: Comparative pharmacokinetic test of the formulation in beagle dog, Experimental Example 8
- Assay type: in vivo
- Condition context: beagle, dog, plasma, po, 25 mg, 25 mg tablet (po), per head, single dose, beagle dog plasma; read-out: Vz(terminal)/F
Experimental readout: Vd/F

INSERT INTO measurements (molecule, meas_value) VALUES
  ('C[C@@H]1CN(c2ccc(S(C)(=O)=O)cc2F)CCN1c1nccc(C(=O)NC2C3CC4CC2CC(O)(C4)C3)n1 (stereo partly shown) [chemical formula 1]', '49.4 L');
